System: T1, human CD70 (human, UniProt P32970 1-193)
T1 construct: also called hu CD70; CD27L
T1 sequence: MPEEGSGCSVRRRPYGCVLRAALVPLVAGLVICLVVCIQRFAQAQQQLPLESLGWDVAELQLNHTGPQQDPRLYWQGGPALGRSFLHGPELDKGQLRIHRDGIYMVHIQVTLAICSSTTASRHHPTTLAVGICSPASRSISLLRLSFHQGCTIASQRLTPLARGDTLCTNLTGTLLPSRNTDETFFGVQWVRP
Protocol details: FACS on CHO cells, periplasmic scFv
Measured endpoint: binding result

1. CD70-18 (scFv, As m32) scFv: EVQLLESGGGLVQPGGSLRLSCAASGFTFSSYAMSWVRQAPGKGLEWVSLISGSGGRTHYADSVKGRFTISRDNSKNTLYLQMNSLRAEDTAVYYCAKHDYSNYPYFDYWGQGTLVTVSSGGGGSGGGGSGGGGSEIVLTQSPGTLSLSPGERATLSCRASQSVRSTYLAWYQQKPGQAPRLLIYDASSRATGIPDRFSGSGSGTDFTLTISRLEPEDFAVYFCQQYGSSPPTFGGGTKLEIK ... binds
2. CD70-1 (scFv) scFv: QVQLVESGGGVVQPGRSLRLSCAASGFTFSTYGMHWVRQAPGKGLEWVAVIWYDGSNKYYGDSVKGRFTISRDNSKNTLYLQMNSLRAEDTAVYYCARDNSHYYYGMDVWGQGTTVTVSSGGGGSGGGGSGGGGSQSVLTQPPSVSGAPGQRVTISCTGSSSNIGAGYDVNWYQQFPGTAPKLLIYVNNNRPSGVPDRFSGSTSGTSASLAITGLQAEDEADYYCQSYDTSLSASVFGGGTRLTVLS ... binds
3. CD70-69 (scFv, As m32) scFv: QVQLQESGPGLVKPSETLSLTCTVSGGSVSTDGYYWSWIRQPPGKCLEWIGYIYYSGSTNYNPSLKSRVTISVDTSKNQFSLKLISVTAADTAVYYCARGIGLGFEYWGQGTLVTVSSGGGGSGGGGSGGGGSSYVLTQLSSVSVAPGQTARITCGGNNIGSKSVHWYQQKPGQAPVLVVYDDSDRPSGIPERFSGSNSGNTATLTISRVEAGDEADYYCQVWDRSSDQDVVFGCGTKLTVL ... binds
